Listed here are variants together with their documented AIRE transcriptional activation functional score.
B1: library; numbered along this chain (parent)
chain: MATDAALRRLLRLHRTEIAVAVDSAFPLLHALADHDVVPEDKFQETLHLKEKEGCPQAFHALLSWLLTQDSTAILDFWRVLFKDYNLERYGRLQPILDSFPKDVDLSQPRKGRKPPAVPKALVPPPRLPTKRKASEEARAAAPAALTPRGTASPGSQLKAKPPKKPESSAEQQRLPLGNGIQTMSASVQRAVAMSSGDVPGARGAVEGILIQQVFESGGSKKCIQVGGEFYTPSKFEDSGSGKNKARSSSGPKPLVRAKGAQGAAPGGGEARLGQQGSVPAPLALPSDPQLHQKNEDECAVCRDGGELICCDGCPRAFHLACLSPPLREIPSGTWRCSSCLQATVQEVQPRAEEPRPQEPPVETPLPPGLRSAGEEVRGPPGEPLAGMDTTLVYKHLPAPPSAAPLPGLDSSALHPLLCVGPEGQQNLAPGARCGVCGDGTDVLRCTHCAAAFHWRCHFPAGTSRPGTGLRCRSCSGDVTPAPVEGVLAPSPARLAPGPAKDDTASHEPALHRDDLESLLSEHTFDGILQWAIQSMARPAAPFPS

# Variants of: B1
# procedure-details: AIRE transcriptional activation functional score (insulin promoter-GFP; nonsense median 0, synonymous median 1) (normalised score); higher = higher AIRE activity (more reporter activation)
# test-context: with insulin promoter-GFP reporter in HEK293
Write no unit; give the number alone.

Field: example entries. Status: answers known.
Task: Param item = `F525C` ; retrieve measured AIRE transcriptional activation functional score.
Result: 0.0978

Task: Then this variant: `A537K`
Result: 0.346

Task: Then this variant: `E270Y`
Result: 1.38

New cases:
Task: Param item = `K253Q` ; retrieve measured AIRE transcriptional activation functional score.
Result: 1.95

Task: Then this variant: `R190N`
Result: 1.15

Task: Then this variant: `D503T`
Result: 1.41

Task: Then this variant: `Q358C`
Result: 0.97

Task: Then this variant: `W78S`
Result: 0.301

Task: Then this variant: `W78A`
Result: 0.0338

Task: Then this variant: `Y90T`
Result: 0.376

Task: Then this variant: `S287T`
Result: 1.44

Sourced from the supplement of paper PMC12667976
